Data origin, for the record: PubChem BioAssay AID1963832

The entries below are paired with their reported viability, T/C.
Tested on: 885724-159-R-J1-PDC complex spheroid viability
Procedure Text: Anticancer human tumor 885724-159-R-J1-PDC patient-derived pancreatic adenocarcinoma cell line growth inhibition [POLQ]
Condition Summary: second compound 3.16 µM; first compound 3.16 µM; hits give low values
Report as a plain number; the unit % is understood.

As a guide, the following entries are already answered.
-- ask // viability, T/C lookup, key: COc1cc(C2c3cc4c(cc3C(OC3OC5COC(C)OC5C(O)C3O)C3COC(=O)C23)OCO4)cc(OC)c1O (centres undefined) + Cc1cccc(N(C)C(=O)C2C(O)CCN2c2nc(C)cc(C(F)(F)F)c2C#N)c1
-- reply 58.6

-- ask // viability, T/C lookup, key: Nc1ccn(C2OC(CO)C(O)C2(F)F)c(=O)n1 (centres undefined) + COC1C(OC(N)=O)C(O)C(Oc2ccc3c(O)c(NC(=O)c4ccc(O)c(CC=C(C)C)c4)c(=O)oc3c2C)OC1(C)C
-- reply 53.9

-- ask // viability, T/C lookup, key: CC1COCCN1c1cc(C2(S(C)(=N)=O)CC2)nc(-c2ccnc3[nH]ccc23)n1 (centres undefined) + Nc1ccc(C#CCN(C(=O)Cc2ncc(C(F)(F)F)cc2C(F)(F)F)c2ccc(F)cc2)nn1
-- reply 53.5

Next:
-- ask // viability, T/C lookup, key: C=CC(=O)N1CCN(c2nc(=O)n(-c3c(C)ccnc3C(C)C)c3nc(-c4c(O)cccc4F)c(F)cc23)C(C)C1 (centres undefined) + COC1C(OC(N)=O)C(O)C(Oc2ccc3c(O)c(NC(=O)c4ccc(O)c(CC=C(C)C)c4)c(=O)oc3c2C)OC1(C)C
-- reply 124

###

Test system: 885724-159-R-J1-PDC complex spheroid viability
Procedure Text: Anticancer human tumor 885724-159-R-J1-PDC cell line growth inhibition [POLQ];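 also: spheroids exposed to compounds for 7 days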
Condition Summary: second compound 0.0316 µM; first compound 1 µM; hits give low values
Measurement Label: viability, T/C (%)
Report as a plain number; the unit % is understood.

-- ask // viability, T/C lookup, key: COc1cc(C2c3cc4c(cc3C(OC3OC5COC(C)OC5C(O)C3O)C3COC(=O)C23)OCO4)cc(OC)c1O (stereo not drawn) + Nc1ccc(C#CCN(C(=O)Cc2ncc(C(F)(F)F)cc2C(F)(F)F)c2ccc(F)cc2)nn1
-- reply 71

-- ask // viability, T/C lookup, key: COc1cc2cc(C(=O)CCC(=O)O)sc2cc1OC + Nc1ccc(C#CCN(C(=O)Cc2ncc(C(F)(F)F)cc2C(F)(F)F)c2ccc(F)cc2)nn1
-- reply 108

API: the following record is the query input.
-- ask // viability, T/C lookup, key: COc1cc2cc(C(=O)CCC(=O)O)sc2cc1OC + COC1C(OC(N)=O)C(O)C(Oc2ccc3c(O)c(NC(=O)c4ccc(O)c(CC=C(C)C)c4)c(=O)oc3c2C)OC1(C)C
-- reply 93.6

###

Test system: 885724-159-R-J1-PDC complex spheroid viability
Procedure Text: Anticancer human tumor 885724-159-R-J1-PDC cell line growth inhibition [POLQ];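 also: spheroids exposed to compounds for 7 days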
Condition Summary: second compound 10 µM; first compound 0.0316 µM; hits give low values
Experimental: Multicellular complex tumor spheroid response to Polymerase (POL) inhibitors (novobiocin, ART-558, RP6685) in combination with a variety of drugs and investigational agents in selected tumor cell lines The POL inhibitors (novobiocin, ART-558, and RP6685) were evaluated both individually and in combination with standard of care and investigational anticancer small molecules within a complex spheroid model of solid tumors. . […]
Measurement Label: viability, T/C (%)
Report as a plain number; the unit % is understood.

-- ask // viability, T/C lookup, key: O=c1[nH]cc(F)c(=O)[nH]1 + Cc1cccc(N(C)C(=O)C2C(O)CCN2c2nc(C)cc(C(F)(F)F)c2C#N)c1
-- reply 99

Next:
-- ask // viability, T/C lookup, key: COc1cc(C2c3cc4c(cc3C(OC3OC5COC(C)OC5C(O)C3O)C3COC(=O)C23)OCO4)cc(OC)c1O (stereo not drawn) + Cc1cccc(N(C)C(=O)C2C(O)CCN2c2nc(C)cc(C(F)(F)F)c2C#N)c1
-- reply 95.9

-- ask // viability, T/C lookup, key: COc1ccc([C@@H](O)c2cc(-c3ncnc4cc(N5CCOCC5)ccc34)c(F)cc2Cl)nn1 + Nc1ccc(C#CCN(C(=O)Cc2ncc(C(F)(F)F)cc2C(F)(F)F)c2ccc(F)cc2)nn1
-- reply 96.7
